// data source = the supplement of paper PMC10567573

B1: ZNF207 (parent)
chain: CHICHKKLYTGPGLAIHCMQVHKE

- Variants of: B1
- procedure-details: protein stability index of a GFP-peptide fusion (GPS, HEK-293T) (PSI 1-6); higher = more stable;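 further: lentivirally expressed fusions sorted by FACS into six bins by GFP to DsRed ratio, PSI derived from sequencing read proportions per bin multiplied by bin number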
- condition-info: c terminus: a fixed tail appended
Recorded protein stability index, one value per entry.
I'd appreciate a reply containing only the number, no unit.

[
  {
    "residue-string": "CHICHKKLYTGPGLAIHCMQVHKQ",
    "readout-number": 2.85
  },
  {
    "residue-string": "CHICHKKLYTGPGYAIHCMQVHKE",
    "readout-number": 2.94
  },
  {
    "residue-string": "CHICHKNLYTGPGLAIHCMQVHKE",
    "readout-number": 4.21
  }
]

State the recorded protein stability index for this entry: CHICHKKLYTGPGLAIHCMWVHKE
2.92

State the recorded protein stability index for this entry: CHICHKKLYTGPGLAITCMQVHKE
2.7

State the recorded protein stability index for this entry: THICHKKLYTGPGLAIHCMQVHKE
1.94

State the recorded protein stability index for this entry: CHICHKKLYTGPGLAIHCMQVHKA
2.66

State the recorded protein stability index for this entry: CHICHKKLYWGPGLAIHCMQVHKE
2.56

State the recorded protein stability index for this entry: CVICHKKLYTGPGLAIHCMQVHKE
2.44
